target: TNFα / TNFα receptor (TNFα R1/Fc) (Homo sapiens); construct: purchased R&D Systems; assay: Inhibition of binding of TNFα to the TNFα receptor (plate ELISA competition); conditions: Table 2; read-out: Activity (IC50, inhibition of TNFα binding to TNFα R1/Fc)
Sequence (P01375 77-233 limits assumed, species assumed): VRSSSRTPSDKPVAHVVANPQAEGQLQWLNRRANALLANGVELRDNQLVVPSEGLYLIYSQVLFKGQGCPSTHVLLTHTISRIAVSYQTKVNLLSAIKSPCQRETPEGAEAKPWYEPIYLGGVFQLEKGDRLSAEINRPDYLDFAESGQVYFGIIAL
pIC50: −log10 of the molar value. Numbered stars: 1 amine (or outer) side, 2 acyl side, 3 side chain; on linkers, the order of the positions; unused ones are H or OH. Bridge positions count the residues as written; N and C are the ends. Square brackets hold non-standard residues; d marks the D form. Peptide text beside a SMILES is read from it. Phe(4-CF3) = N[C@@H](Cc1ccc(C(F)(F)F)cc1)C(=O)O; dPhe(3-CN) = N#Cc1cccc(C[C@@H](N)C(=O)O)c1; Bip = N[C@@H](Cc1ccc(-c2ccccc2)cc1)C(=O)O; dPhe(4-NH2) = Nc1ccc(C[C@@H](N)C(=O)O)cc1; Phe(4-Cl) = N[C@@H](Cc1ccc(Cl)cc1)C(=O)O; Phe(4-NH2) = Nc1ccc(C[C@H](N)C(=O)O)cc1; d2Thi = N[C@H](Cc1cccs1)C(=O)O; Suc = O=C(CCC(=O)[*:2])[*:1]
Measurement Kind: pIC50

Compound	Measurement Kind	Value Measured
O=C1CCC(=O)N[C@H](Cc2cccs2)C(=O)N[C@@H](Cc2ccc(Cl)cc2)C(=O)N[C@H](Cc2ccccc2)C(=O)N[C@H](C(=O)O)Cc2ccc(cc2)N1 [Compound 105] ([d2Thi][Phe(4-Cl)][dF][Phe(4-NH2)]-OH; linker N-4 via Suc)	pIC50	4.00 to 4.52
N[C@@H]1CC(=O)N[C@H](Cc2cccs2)C(=O)N[C@@H](Cc2ccc(-c3ccccc3)cc2)C(=O)N[C@H](Cc2ccccc2)C(=O)N[C@H](C(=O)O)Cc2ccc(cc2)NC1=O	pIC50	< 4.00
N#Cc1cccc(C[C@H]2CC(=O)N[C@H](C(=O)O)Cc3ccc(cc3)OCC(=O)N[C@@H](Cc3cccs3)C(=O)N[C@H](Cc3ccc(-c4ccccc4)cc3)C(=O)N2)c1	pIC50	> 5.00
O=C1CCC(=O)N[C@H](Cc2cccs2)C(=O)N[C@@H](Cc2ccc(-c3ccccc3)cc2)C(=O)N[C@H](Cc2ccccc2)C(=O)N[C@H](C(=O)N2CCC[C@@H]2C(=O)O)Cc2ccc(cc2)N1 [Compound 32] ([d2Thi][Bip][dF][Phe(4-NH2)][dP]-OH; linker N-4 via Suc)	pIC50	< 4.00
O=C1COc2ccc(cc2)C[C@@H](C(=O)O)NC(=O)[C@@H](Cc2cccs2)NC(=O)[C@H](Cc2ccc(-c3ccccc3)cc2)NC(=O)[C@@H](Cc2cccs2)N1	pIC50	< 4.00
N#Cc1cccc(C[C@H]2NC(=O)CCC(=O)Nc3ccc(cc3)C[C@@H](C(=O)O)NC(=O)[C@@H](Cc3ccccc3)NC(=O)[C@H](Cc3ccc(C(F)(F)F)cc3)NC2=O)c1 [Compound 130] ([dPhe(3-CN)][Phe(4-CF3)][dF][Phe(4-NH2)]-OH; linker N-4 via Suc)	pIC50	4.52 to 5.00
O=C1CCC(=O)N[C@H](Cc2cccs2)C(=O)N[C@@H](Cc2ccc(-c3ccccc3)cc2)C(=O)N[C@H](Cc2ccccc2)C(=O)N[C@@H](C(=O)N[C@@H](Cc2ccccc2)C(=O)O)Cc2ccc(cc2)N1 [Compound 198] ([d2Thi][Bip][dF][dPhe(4-NH2)]F-OH; linker N-4 via Suc)	pIC50	> 5.00
O=C1COc2ccc(cc2)C[C@@H](C(=O)O)NC(=O)[C@H](Cc2ccccc2)NC(=O)[C@H](Cc2ccc(-c3ccncc3)cc2)NC(=O)[C@H](Cc2cccs2)N1	pIC50	> 5.00
O=C1N[C@H](Cc2ccccc2)C(=O)N[C@@H](C(=O)O)Cc2ccc(cc2)NC(=O)[C@H](O)[C@@H](O)C(=O)N[C@H](Cc2cccs2)C(=O)N[C@H]1Cc1ccc(Br)cc1	pIC50	4.00 to 4.52
CC(C)[C@H](NC(=O)[C@@H]1Cc2ccc(cc2)NC(=O)CCC(=O)N[C@H](Cc2cccs2)C(=O)N[C@@H](Cc2ccc(-c3ccccc3)cc2)C(=O)N[C@H](Cc2ccccc2)C(=O)N1)C(=O)O [Compound 26] ([d2Thi][Bip][dF][Phe(4-NH2)]V-OH; linker N-4 via Suc)	pIC50	4.52 to 5.00

Taken from patent US8338565B2.
